test-target: human organic cation transporter 3 (hOCT3) (Homo sapiens, UniProt O75751)
Sequence (O75751 1-556): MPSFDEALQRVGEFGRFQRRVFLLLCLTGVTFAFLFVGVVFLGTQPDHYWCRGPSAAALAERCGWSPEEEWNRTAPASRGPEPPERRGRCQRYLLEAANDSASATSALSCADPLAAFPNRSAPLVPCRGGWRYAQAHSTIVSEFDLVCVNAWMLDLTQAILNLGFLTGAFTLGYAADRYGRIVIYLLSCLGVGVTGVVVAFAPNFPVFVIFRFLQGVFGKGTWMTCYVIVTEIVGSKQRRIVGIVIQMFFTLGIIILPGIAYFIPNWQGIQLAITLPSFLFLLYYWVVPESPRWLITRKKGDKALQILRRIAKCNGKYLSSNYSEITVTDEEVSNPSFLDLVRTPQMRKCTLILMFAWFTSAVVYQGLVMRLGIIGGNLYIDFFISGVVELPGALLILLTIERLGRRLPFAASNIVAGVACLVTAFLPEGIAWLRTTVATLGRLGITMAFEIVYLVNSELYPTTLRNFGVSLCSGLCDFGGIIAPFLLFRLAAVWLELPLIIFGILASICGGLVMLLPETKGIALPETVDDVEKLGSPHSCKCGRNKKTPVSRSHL
test: Histamine incorporation experiment in HEK293 cells expressing hOCT3 (OCT3 inhibition activity)
applied-conditions: control curve
reported-metric: IC50 (µM)

P = NC(N)=Nc1nc(CCCC/C(N)=N/S(=O)(=O)C(F)(F)F)cs1 [SR-2065]
Q = NC(N)=Nc1nc(CSCCC(N)=NS(N)(=O)=O)cs1 [FAMOTIDINE, famotidine, reference compound]
R = Cc1nc(CCCCc2csc(N=C(N)N)n2)[nH]c(=O)c1CCc1ccccc1 [SR-2076]
S = NC(N)=Nc1cc(CSCC/C(N)=N/S(=O)(=O)C(F)(F)F)ccn1 [SR-2023]
T = NC(N)=Nc1nc(CSCCNC(=O)CO)cs1 [SR-2045]
[in] Lab note: order the above by reported IC50, lowest first, highest last. # answer = labels listed in requested order
[out] R, S, T, P, Q
